Tested on: HEK-293T
Assay info: Multiplex assay against HEK293T
Assay type: toxicity, cell-based
Particulars: human, 12 h, 10 µM, compound concentration 10 uM, replicate 1
Can you tell me Population Normal (%) for the items I'm about to list?
Numbers only, in %.

Check out these entries, answers already filled in.
CC(/C=C1\SC(=S)N(CCCC(=O)Nc2ccc(C(=O)O)c(O)c2)C1=O)=C\c1ccccc1: 86
N#Cc1cccc(C(=O)Nc2cc(-c3ccccc3)nn2-c2ccccc2)c1: 86
C=CC(=O)Nc1cc(-n2c(=O)ccc3cnc4ccc(-c5ccc(NS(C)(=O)=O)cc5)cc4c32)ccc1C: 83

Dear reader, for each entry below, please note its Population Normal (%).
1. Oc1cccc(-c2nc(N3CCOCC3)c3oc4ncccc4c3n2)c1
2. Cc1c(Nc2ccc(S(=O)(=O)N3CCN(C)CC3)cc2F)nc2ccc(Nc3cnn(C4CC4)c3)cn2c1=O
3. Cc1ccc(S(=O)(=O)NC2c3ccccc3Oc3ccccc32)cc1
4. C[C@@H](Oc1cc(-n2cnc3ccc(CN4CCN(C)CC4)cc32)sc1C(N)=O)c1ccccc1C(F)(F)F
5. NC(=O)c1ccc2nc(-c3ccc(C4(N)CCC4)cc3)c(-c3ccccc3)n2n1
6. c1ccc(-c2oc3ncnc(NC[C@@H]4CCCO4)c3c2-c2ccccc2)cc1
7. CC[C@H](Nc1ncnc2[nH]cnc12)c1nc2cccc(F)c2c(=O)n1-c1ccccc1
8. CC[C@@H]1C(=O)N(C)c2cnc(Nc3ccc(C(=O)NC4CCN(C)CC4)cc3OC)nc2N1C1CCCC1

81
91
88
77
84
82
91
88

Dear reader, for each entry below, please note its Population Normal (%).
1. CC(Cc1ccc(O)c(O)c1)C(C)Cc1ccc(O)c(O)c1 (stereo not drawn) [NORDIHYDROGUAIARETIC ACID]
2. CCOc1ccn(-c2ccc(F)cc2)c(=O)c1C(=O)Nc1ccc(Oc2ccnc(N)c2Cl)c(F)c1
3. CN1C(=O)[C@@H](NC(=O)c2cc3ccccc3[nH]2)N=C(c2ccccc2)c2ccccc21 [DEVAZEPIDE]
4. CCCCN(CC)c1nc(C)nc2c1c(C)cn2-c1c(C)cc(C)cc1C.Cl
5. Cc1ccc(NC(=O)Nc2cc(C(F)(F)F)ccc2F)cc1Nc1ccc2c(c1)NC(=O)/C2=C\c1ccc[nH]1
6. CCCCCNC(=N)N/N=C/c1c[nH]c2ccc(OC)cc12.O=C(O)/C=C\C(=O)O [TEGASEROD MALEATE]
7. CC(C)[C@H](CO)Nc1nc(Nc2cccc(Cl)c2)c2ncn(C(C)C)c2n1

1: 84; 2: 84; 3: 84; 4: 91; 5: 93; 6: 72; 7: 87

Dear reader, for each entry below, please note its Population Normal (%).
1. Cl.NC[C@@H]1O[C@H](C23CC4CC(CC(C4)C2)C3)Cc2c1ccc(O)c2O
2. CN(c1cc(C(F)(F)F)nc(OCCC(=O)O)n1)c1cccc2c1CCC2
3. N#CCNC(=O)c1ccc(-c2ccnc(Nc3ccc(N4CCOCC4)cc3)n2)cc1
4. CS(=O)(=O)N1CCCC(NC(=O)[C@H](CCC2CCCCC2)NC(=O)c2ccc(CNc3ncnc4c3nnn4-c3ccccc3)cc2)C1 (stereo partly drawn)
5. CC[C@@]1(O)C(=O)OCc2c1cc1n(c2=O)Cc2cc3ccccc3nc2-1
6. CC(C)c1cc(Nc2nc(N3CCC[C@H](N)C3)ncc2C(N)=O)cc(C(C)C)n1
7. Cc1c(P(=S)(c2ccccc2)c2ccccc2)n2ccccc2[n+]1C/C=C/c1ccccc1.[Br-]
8. CCOC(=O)CCNc1cc(N2CCc3ccccc3CC2)nc(-c2ccccn2)n1

1. 83
2. 83
3. 93
4. 82
5. 86
6. 81
7. 78
8. 83

Dear reader, for each entry below, please note its Population Normal (%).
1. Cl.Cn1c2c(c3ccc(Cl)c(Cl)c31)C(C#N)C1(CCNCC1)NC2=O (stereo not drawn)
2. CCCc1cc(C)[nH]c(=O)c1CNC(=O)c1cc(-c2ccc(N3CCN(C(C)C)CC3)nc2)cc2c1cnn2C(C)C

1. 79
2. 79
